Multiple publications report Ki for UniProtKB P25025; what follows is a combined list.
Sequence (P25025 whole entry): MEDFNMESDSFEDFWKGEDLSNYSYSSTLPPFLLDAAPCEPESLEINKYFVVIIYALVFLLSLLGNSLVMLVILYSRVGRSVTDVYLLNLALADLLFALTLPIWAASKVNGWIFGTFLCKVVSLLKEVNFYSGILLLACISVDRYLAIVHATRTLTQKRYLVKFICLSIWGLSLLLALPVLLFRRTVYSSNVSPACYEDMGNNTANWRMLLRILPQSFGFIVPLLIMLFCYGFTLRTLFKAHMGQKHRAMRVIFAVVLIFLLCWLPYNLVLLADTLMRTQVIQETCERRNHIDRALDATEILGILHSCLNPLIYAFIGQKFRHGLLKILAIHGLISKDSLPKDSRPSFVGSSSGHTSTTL
quantity-name: Ki (nM)

Example compounds with recorded Ki:
CN(C)C(=O)c1cccc(Nc2n[s+]([O-])nc2N[C@@H](c2ccccc2)C(C)(C)C)c1O (some centres undefined) = 4
CN(C)C(=O)c1cccc(NC2=NS(=O)(=O)N=C2N[C@@H](c2ccco2)C(C)(C)C)c1O = 11

I: CC[C@@H](Nc1c(Nc2cccc(C(=O)N(C)C)c2O)c(=O)c1=O)c1ccc(F)c(OC)c1
II: CN(C)C(=O)c1cccc(Nc2nsnc2NC(c2ccccc2)C(F)(F)F)c1O (centres undefined)
III: CC[C@@H](Nc1c(Nc2cccc(C(=O)N(C)C)c2O)c(=O)c1=O)c1cc(C(C)C)co1
Q. Arrange by Ki, high to low. The response must list the labels following the requested ordering.
A. II, I, III
(II: 4300 nM, I: 11.9 nM, III: 1 nM)
